Sourced from patent US8436006B2

# EXPERIMENTAL_TARGET: β-secretase (BACE) (Homo sapiens)
# Construct: purchased Panvera
# PROTOCOL_SUMMARY: BACE FS1% Inhibition Assay (Example 160)
# Assay type: biochemical
# CONDITIONS_USED: 0.3 μM test compound
EXPERIMENTAL_READOUT: % Inhibition (FS) (%)

{"columns": ["COMPOUND", "% Inhibition (FS) / %"],
 "data": [
  ["CC(C)(C)C(=O)NCCN1Cc2cc(-c3ccc4ccccc4c3)ccc2N=C1N", 33]
]}

(P) Cc1ccccc1-c1ccc2c(c1)CN(CCNC(=O)CC(C)C(F)(F)F)C(N)=N2 (stereo not shown)
(Q) CCCCCC(CCC(=O)NC1CCCCC1)N1Cc2cc(Oc3ccccc3)ccc2N=C1N (stereo not shown)
Prompt line: Quick check, higher % Inhibition (FS) between P and Q ? Please respond with the label that marks your chosen entry.
Response line: P

====

# EXPERIMENTAL_TARGET: β-secretase (BACE) (Homo sapiens, UniProt P56817)
# Construct: purchased Panvera
# Sequence (P56817 46-501): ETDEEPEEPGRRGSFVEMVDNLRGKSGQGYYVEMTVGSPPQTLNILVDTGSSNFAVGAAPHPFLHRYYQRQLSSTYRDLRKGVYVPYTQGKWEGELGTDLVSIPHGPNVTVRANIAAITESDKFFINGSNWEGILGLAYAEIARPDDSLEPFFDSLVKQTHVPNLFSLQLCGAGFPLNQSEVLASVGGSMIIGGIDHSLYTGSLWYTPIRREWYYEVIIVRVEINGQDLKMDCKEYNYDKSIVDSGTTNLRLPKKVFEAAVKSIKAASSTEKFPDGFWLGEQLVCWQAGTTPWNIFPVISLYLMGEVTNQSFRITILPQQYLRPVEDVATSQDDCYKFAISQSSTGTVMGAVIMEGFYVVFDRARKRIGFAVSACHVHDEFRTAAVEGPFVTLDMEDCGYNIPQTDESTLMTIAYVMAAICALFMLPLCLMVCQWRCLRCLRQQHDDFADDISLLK
# PROTOCOL_SUMMARY: BACE FS1% Inhibition Assay (Example 160)
# Type: biochemical
# CONDITIONS_USED: 1 μM test compound
EXPERIMENTAL_READOUT: % Inhibition (FS) (%)

(A) NC1=Nc2ccc(-c3ccccc3F)cc2CN1CCNC(=O)C1CCC(C(F)(F)F)CC1 (stereo not drawn)
(B) COC1CCCC(C(=O)NCCN2Cc3cc(-c4ccccc4C)ccc3N=C2N)C1 (stereo not drawn)
Prompt line: Sort A and B by % Inhibition (FS) descending and give the first. Mark your answer with the label of the selected entry.
Response line: B
(B: 72%, A: 36%)

====

# EXPERIMENTAL_TARGET: β-secretase (BACE) (Homo sapiens, UniProt P56817)
# Construct: purchased Panvera
# PROTOCOL_SUMMARY: BACE Assay-1 (Example 158), MCA-substrate fluorescence
# Format: biochemical
# CONDITIONS_USED: procedure of Example 158
EXPERIMENTAL_READOUT: IC50 (µM)

Past entries and their recorded results:
{"columns": ["MOLECULE", "EXPERIMENTAL_TARGET", "IC50, µM"],
 "data": [
  ["NC1=Nc2ccc(Oc3ccccc3)cc2CN1C(CNC(=O)C12CC3CC(CC(C3)C1)C2)C1CCCCC1 (stereo not drawn)", "β-secretase (BACE) (Homo sapiens, UniProt P56817)", 0.039],
  ["CCCC(CCC(=O)NC1CCCCCC1)N1Cc2cc(Oc3ccccc3)ccc2N=C1N (stereo not drawn)", "β-secretase (BACE) (Homo sapiens, UniProt P56817)", 0.072]
]}

(A) CCCC(CCCC(=O)NC1CCCCC1)N1Cc2cc(Oc3ccccc3)ccc2N=C1N (stereo not drawn)
(B) CC(C)(C)C(=O)NCC(C1CCCCC1)N1Cc2cc(Oc3ccccc3)ccc2N=C1N (stereo not drawn)
(C) CCCN1Cc2cc(Oc3cccc(NS(=O)(=O)c4cccc5nsnc45)c3)ccc2N=C1N
(D) CC(C)(C)OC(=O)NCC(C1CCCCC1)N1Cc2cc(Oc3ccccc3)ccc2N=C1N (stereo not drawn)
Prompt line: Number of molecules to sort: 4. Sort criterion: IC50, ascending. Answer by writing out the labels in the requested order.
Response line: D, B, A, C
(D: 0.083 µM, B: 0.39 µM, A: 0.6 µM, C: 1.7 µM)

====

# EXPERIMENTAL_TARGET: β-secretase (BACE) (Homo sapiens, UniProt P56817)
# Construct: purchased Panvera
# PROTOCOL_SUMMARY: BACE % Inhibition Assay (Example 161), (Aedens)-[…]-(Dabcyl K-amide) substrate
# Assay type: biochemical
# CONDITIONS_USED: 0.3 μM test compound; % error ±10%
EXPERIMENTAL_READOUT: % Inhibition (%)

{"columns": ["MOLECULE", "EXPERIMENTAL_TARGET", "MEASURED_VALUE"],
 "data": [
  ["NC1=Nc2ccc(Oc3ccccc3)cc2CN1C(CCNC(=O)C1CCCC1)C1CCCCC1 (stereo not drawn) [Compound 392]", "β-secretase (BACE) (Homo sapiens, UniProt P56817)", 75],
  ["NC1=Nc2ccc(Oc3ccccc3)cc2CN1C(CNC(=O)CCC1CCCC1)C1CCCCC1 (stereo not drawn) [Compound 366]", "β-secretase (BACE) (Homo sapiens, UniProt P56817)", 64],
  ["CC(C)CC(=O)NCC(C1CCCCC1)N1Cc2cc(Oc3ccccc3)ccc2N=C1N (stereo not drawn) [Compound 389]", "β-secretase (BACE) (Homo sapiens, UniProt P56817)", 85]
]}

====

# EXPERIMENTAL_TARGET: β-secretase (BACE) (Homo sapiens, UniProt P56817)
# Construct: purchased Panvera
# PROTOCOL_SUMMARY: BACE FS1% Inhibition Assay (Example 160)
# Assay type: biochemical
# CONDITIONS_USED: 1 μM test compound
EXPERIMENTAL_READOUT: % Inhibition (FS) (%)

{"columns": ["COMPOUND", "% Inhibition (FS), %"],
 "data": [
  ["CN(Cc1csc(-c2ccccc2)n1)C(=O)CC[C@@H](C1CCCCC1)N1Cc2cc(-c3ccccc3F)ccc2N=C1N", 35]
]}

(I) NC1=Nc2ccc(-c3cnc4ccccc4c3)cc2CN1CCNC(=O)C1CCCC1
(II) Cc1ccccc1-c1ccc2c(c1)CN(CCNC(=O)CCC(F)(F)F)C(N)=N2
(III) NC1=Nc2ccc(-c3ccccc3F)cc2CN1CCNC(=O)C1CCOCC1
Prompt line: Order the 3 compounds from highest to lowest % Inhibition (FS). Form entry: ranked labels (order as requested).
Response line: II, III, I

(1) NC1=Nc2ccc(-c3ccccc3)cc2CN1CCNC(=O)CCC(F)(F)F
(2) COc1ccc(C(CCC(=O)N(C)C2CCCCC2)N2Cc3cc(Oc4ccccc4)ccc3N=C2N)cc1 (stereo not shown)
Prompt line: Field: lower recorded % Inhibition (FS) (choose 1 or 2 ) Mark your answer with the label of the selected entry.
Response line: 1

(1) COc1ccccc1-c1ccc2c(c1)CN([C@@H](CCC(=O)N(C)Cc1cc(C)no1)C1CCCCC1)C(N)=N2
(2) CN(C(=O)CCC(C1CCCCC1)N1Cc2cc(Oc3ccccc3)ccc2N=C1N)C1CCC(C#N)CC1 (stereo not shown)
Prompt line: Response body: label of entry with the larger % Inhibition (FS); valid values 1 , 2 . Use the label to indicate which entry you chose.
Response line: 2
(2: 61%, 1: 30%)

====

# EXPERIMENTAL_TARGET: β-secretase (BACE) (Homo sapiens, UniProt P56817)
# Construct: purchased Panvera
# PROTOCOL_SUMMARY: BACE FS1% Inhibition Assay (Example 160)
# Format: biochemical
# CONDITIONS_USED: 1 μM test compound
EXPERIMENTAL_READOUT: % Inhibition (FS) (%)

Below, each entry is followed by its recorded % Inhibition (FS) result.
{"columns": ["MOLECULE", "EXPERIMENTAL_READOUT", "MEASURED_VALUE"],
 "data": [
  ["CC(CC(=O)NCCN1Cc2cc(-c3ccccc3Cl)ccc2N=C1N)C(F)(F)F (stereo not shown) [Compound 683]", "% Inhibition (FS)", 86],
  ["CC(CC(=O)NCCN1Cc2cc(-c3ccccc3)ccc2N=C1N)C(F)(F)F (stereo not shown) [Compound 685]", "% Inhibition (FS)", 90],
  ["COC1CCCC(C(=O)NCCN2Cc3cc(-c4ccccc4)ccc3N=C2N)C1 (stereo not shown) [Compound 703]", "% Inhibition (FS)", 46],
  ["CC(CC(=O)NCCN1Cc2cc(-c3ccccc3F)ccc2N=C1N)C(F)(F)F (stereo not shown) [Compound 681]", "% Inhibition (FS)", 100],
  ["Cc1ccccc1-c1ccc2c(c1)CN(CCNC(=O)CCC(C)C)C(N)=N2 [Compound 661]", "% Inhibition (FS)", 98]
]}

(1) CN(C(=O)CCC(C1CCCCC1)N1Cc2cc(Oc3ccccc3)ccc2N=C1N)C1(C(=O)O)CCCCC1 (stereo not shown) [Compound 741]
(2) COc1cccc(F)c1-c1ccc2c(c1)CN(CCNC(=O)C1CCOCC1)C(N)=N2 [Compound 699]
(3) CN(C(=O)CCC(C1CCCCC1)N1Cc2cc(Oc3ccccc3)ccc2N=C1N)C1CCC(C(=O)OCc2ccccc2)CC1 (stereo not shown) [Compound 760]
(4) CC(C)[C@H](CNC(=O)C1CCCCC1)N1Cc2cc(Oc3ccccc3)ccc2N=C1N [Compound 561]
Prompt line: Rank descending by % Inhibition (FS). Give me the labels in the order the question wants.
Response line: 4, 2, 3, 1

====

# EXPERIMENTAL_TARGET: β-secretase (BACE) (Homo sapiens)
# Construct: purchased Panvera
# PROTOCOL_SUMMARY: BACE FS1% Inhibition Assay (Example 160)
# Assay type: biochemical
# CONDITIONS_USED: 0.3 μM test compound
EXPERIMENTAL_READOUT: % Inhibition (FS) (%)

{"columns": ["MOLECULE", "% Inhibition (FS) / %"],
 "data": [
  ["CN(Cc1csc(-c2ccccc2)n1)C(=O)CC[C@@H](C1CCCCC1)N1Cc2cc(-c3ccccc3F)ccc2N=C1N", 35],
  ["Cc1ccccc1-c1ccc2c(c1)CN(CCNC(=O)CCC(F)(F)F)C(N)=N2", 51],
  ["CC(CC(=O)NCCN1Cc2cc(-c3ccccc3F)ccc2N=C1N)C(F)(F)F (centres unmarked)", 67],
  ["NC1=Nc2ccc(Oc3ccccc3)cc2CN1Cc1cccc(C(=O)N(C2CCCCC2)C2CCCCC2)c1", 49]
]}
